biological target: human 5-HT1A receptor (Homo sapiens); construct: expressed in transfected cells; test: GPCR radioligand binding assay, [3H]-8-OH-DPAT displacement, HEK293 membranes; conditions: 5-HT1A; replicate exp_1
Attribute: %inh 5-HT1A exp_1
Record the value in %, omitting the unit from your answer.

Reference set, count: 4
c1ccc(-c2ccncc2)cc1 [C2] ... -11
COc1ccc(CN2CCNCC2)cc1F [D11] ... 10
O=C(NC1CC1)c1ccccc1O [G4] ... 3.42
NCC1(c2ccccc2)CCOCC1 [F10] ... 10

Now take the following molecule into account.
Provide %inh 5-HT1A exp_1, tested on human 5-HT1A receptor (Homo sapiens), for O=C1CCN(c2ccccn2)CC1 [G8] .
4

###

Examples of compounds with documented %inh 5-HT6 corrected* follow.
molecular target: human 5-HT6 receptor (Homo sapiens); construct: expressed in transfected cells; experiment: GPCR radioligand binding assay, [3H]-LSD displacement, HEK293 membranes; conditions: 5-HT6; average, values below 0 and above 100% were set as 0 and 100
Sequence (P50406 whole entry): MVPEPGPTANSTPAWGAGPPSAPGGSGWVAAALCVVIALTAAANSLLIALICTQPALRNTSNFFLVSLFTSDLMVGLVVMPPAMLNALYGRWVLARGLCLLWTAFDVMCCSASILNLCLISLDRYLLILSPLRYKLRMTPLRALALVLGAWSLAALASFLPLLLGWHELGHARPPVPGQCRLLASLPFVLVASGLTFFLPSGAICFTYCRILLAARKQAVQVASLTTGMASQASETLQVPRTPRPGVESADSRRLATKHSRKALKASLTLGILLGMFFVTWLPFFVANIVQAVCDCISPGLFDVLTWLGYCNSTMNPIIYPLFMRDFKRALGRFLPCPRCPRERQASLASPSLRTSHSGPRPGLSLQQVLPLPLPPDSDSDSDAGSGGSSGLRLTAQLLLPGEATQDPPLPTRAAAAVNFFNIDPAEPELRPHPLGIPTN
Answer with a number only, understood to be in %.

Some solved cases for reference:
O=C(O)c1ccc(CN2CCOCC2)cc1 ... 44
COc1cccc(NC2=NCCCCC2)c1 ... 14
Clc1ccc2nnnn2n1 ... 35
O=c1[nH]ncc2c1oc1ccccc12 ... 26

Query compound follows.
Retrieve %inh 5-HT6 corrected* measured for O=C1CCN(c2ccncc2)CC1 and print it.
7

###

Molecular target: human 5-HT1A receptor (Homo sapiens)
Construct: expressed in transfected cells
Sequence (P08908 1-422): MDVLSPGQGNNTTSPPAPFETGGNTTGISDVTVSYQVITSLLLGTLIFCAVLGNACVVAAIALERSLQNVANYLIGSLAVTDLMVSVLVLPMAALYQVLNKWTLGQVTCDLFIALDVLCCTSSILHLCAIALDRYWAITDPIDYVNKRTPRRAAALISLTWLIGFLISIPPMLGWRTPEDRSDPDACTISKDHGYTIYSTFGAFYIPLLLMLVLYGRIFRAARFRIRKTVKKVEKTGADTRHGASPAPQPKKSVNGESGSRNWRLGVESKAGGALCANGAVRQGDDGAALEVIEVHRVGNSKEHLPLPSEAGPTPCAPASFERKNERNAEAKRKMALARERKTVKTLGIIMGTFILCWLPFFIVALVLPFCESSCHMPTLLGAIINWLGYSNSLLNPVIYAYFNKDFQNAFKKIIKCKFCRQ
Assay: GPCR radioligand binding assay, [3H]-8-OH-DPAT displacement, HEK293 membranes
Conditions: 5-HT1A; replicate exp_1; read-out: %inh 5-HT1A exp_1
Collected inhibition at 10 µM values appear next to each entry.
All answers are understood in %, so give the number only.

# example entries with known answers
O=C(c1ccccc1F)N1CCNCC1 [E12] ... 13
O=C(O)c1cnc(-c2ccccc2)s1 [F3] ... -2.47
CS(=O)(=O)Nc1ccc(C(=O)O)cc1 [SX084] ... 9
Cc1cc2ccccc2nc1N [SX001] ... -0.697
O=C(O)C1CCN(c2ncccn2)CC1 [E9] ... 11
Nc1nnc(-c2cccs2)[nH]1 [D3] ... 1.73
Oc1ccccc1N1CCCCC1 [A12] ... 3.37
CC1CCc2sc(C(=O)O)cc2C1 (stereo not shown) [SX045] ... -0.0944
Nc1nnc2ccccn12 [SX005] ... 4
c1ccc(Nc2nncs2)cc1 [D8] ... -10

# context switch: different compound, same inhibition at 10 µM
Please report the measured inhibition at 10 µM for Cn1c(N)nc2ccccc21 [A6]
-18
